Tested on: PC-3 prostate
experimental protocol: NCI-60 one-dose screen, 48 h (100 = growth as untreated, 0 = no growth, -100 = all killed)
test parameters: 10 µM unless noted
This is part of a sample that, as a whole, favours compounds with a hit. Of some 83,000 tested, about 20% had one in any assay.
quantity: growth (%)
Just the number please, in %, no unit attached.

Query: Given the compound `Oc1ccc(CN2CCC(N3CCCCC3)CC2)c2cccnc12` , what is its reported growth?
Reply: 17.9

***
Query: Given the compound `COc1ccc(-c2nc(/C=C3\SC(=NCc4ccccc4)NC3=O)c3ccccn23)cc1` , what is its reported growth?
Reply: 13.7

Query: Given the compound `CN1CCN(Cc2ccc(NC(=O)c3cncc(C#Cc4cnc(N)c5ccccc45)c3)cc2C(F)(F)F)CC1` , what is its reported growth?
Reply: -53.1
